Several reports have described IC50 for Sphingomyelin phosphodiesterase 2 (Rattus norvegicus, UniProt Q9ET64); a selection of those results is presented here.

CCCCCCCCCCCCC/C=C/[C@@H](O)[C@H](COC(=O)NCc1ccncc1)NC(=O)CCCCCCCCCCCCCCCCC; > 100 µM
CCCCCCS(=O)(=O)OC[C@H]1OC(O)[C@H](OP(=O)(O)O)[C@@H](O)[C@@H]1OP(=O)(O)O (some centres undefined); > 100 µM
CCCCCCCCCCCCC/C=C/[C@@H](O)[C@H](COC(=O)N(O)Cc1ccncc1)NC(=O)C(C)(C)C; 21 µM

// moving on: another record for IC50
Input: Recorded IC50 of CCCCCCCCS(=O)(=O)OC[C@H]1OC(O)[C@H](OP(=O)(O)O)[C@@H](O)[C@@H]1OP(=O)(O)O (some centres undefined) , please.
Output: > 100 µM
